Where do the numbers come from? From ChEMBL document CHEMBL6083283.

# target of assay: Bromodomain-containing protein 2 (Homo sapiens)
# Sequence (P25440 whole entry): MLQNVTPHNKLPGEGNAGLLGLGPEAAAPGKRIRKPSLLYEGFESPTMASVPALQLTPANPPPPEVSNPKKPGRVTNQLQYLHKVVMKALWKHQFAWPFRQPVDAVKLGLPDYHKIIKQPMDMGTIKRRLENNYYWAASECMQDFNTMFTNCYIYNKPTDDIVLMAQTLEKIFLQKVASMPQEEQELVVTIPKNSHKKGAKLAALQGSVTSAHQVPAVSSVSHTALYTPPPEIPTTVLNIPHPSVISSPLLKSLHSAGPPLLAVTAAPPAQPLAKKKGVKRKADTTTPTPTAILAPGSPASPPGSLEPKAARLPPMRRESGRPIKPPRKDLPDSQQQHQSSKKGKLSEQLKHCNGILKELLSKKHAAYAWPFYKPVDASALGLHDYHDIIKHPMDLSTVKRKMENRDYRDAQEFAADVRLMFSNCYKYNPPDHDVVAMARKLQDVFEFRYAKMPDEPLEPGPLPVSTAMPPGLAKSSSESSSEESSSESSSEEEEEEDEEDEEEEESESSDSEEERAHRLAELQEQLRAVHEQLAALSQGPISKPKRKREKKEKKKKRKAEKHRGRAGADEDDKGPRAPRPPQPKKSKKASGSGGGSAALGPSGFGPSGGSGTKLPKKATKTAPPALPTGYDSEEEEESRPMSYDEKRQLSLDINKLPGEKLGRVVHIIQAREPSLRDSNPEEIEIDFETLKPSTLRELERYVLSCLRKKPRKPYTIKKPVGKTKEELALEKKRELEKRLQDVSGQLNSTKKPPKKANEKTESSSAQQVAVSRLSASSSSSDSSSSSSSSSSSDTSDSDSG
measurement name: IC50

Give IC50 for the following compound: "COc1cc(OC)c2c(=O)[nH]c(-c3ccc(C(=O)N4CC5(CCN(c6ncc7c(C)cc(=O)n(C8CCCC8)c7n6)CC5)C4)cc3)nc2c1"
> 1000 nM

----------
# target of assay: CDK6/cyclin D3 (Homo sapiens, UniProt Q00534)
# Sequence (P30281 whole entry): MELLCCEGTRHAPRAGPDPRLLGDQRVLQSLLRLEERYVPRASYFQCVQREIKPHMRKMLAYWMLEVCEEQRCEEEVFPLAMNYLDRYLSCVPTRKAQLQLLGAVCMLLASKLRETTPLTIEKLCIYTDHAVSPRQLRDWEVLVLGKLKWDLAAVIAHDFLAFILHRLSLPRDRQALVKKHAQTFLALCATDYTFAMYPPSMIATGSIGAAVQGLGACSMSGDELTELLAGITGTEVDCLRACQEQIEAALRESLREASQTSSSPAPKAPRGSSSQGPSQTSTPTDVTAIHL
# Sequence (Q00534 whole entry): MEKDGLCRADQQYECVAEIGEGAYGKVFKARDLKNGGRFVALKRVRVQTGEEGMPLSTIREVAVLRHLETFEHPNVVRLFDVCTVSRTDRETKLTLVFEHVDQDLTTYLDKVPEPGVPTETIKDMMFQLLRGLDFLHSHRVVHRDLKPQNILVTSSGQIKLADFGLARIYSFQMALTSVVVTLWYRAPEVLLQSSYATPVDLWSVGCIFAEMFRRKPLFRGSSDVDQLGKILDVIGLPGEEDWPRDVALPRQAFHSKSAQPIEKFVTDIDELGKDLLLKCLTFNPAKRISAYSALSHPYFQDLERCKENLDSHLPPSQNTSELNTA
# assay info: Inhibition of full length recombinant human CDK6/CyclinD3 co-expressed by baculovirus in Sf9 insect cells using histone H1 as substrate by ADP-glo kinase assay
measurement name: IC50 (nM)
Reply with just the number (in nM).

> print(dat)
                                   compound  measurement.name  quantitative.result
1  COc1cc(OC)c2c(=O)[nH]c(-c3ccc(C(=O)N4CC5(CCN(c6ncc7c(C)cc(=O)n(C8CCCC8)c7n6)CC5)C4)cc3)nc2c1              IC50                   36

Next:
Indicate the recorded IC50 value for this compound: COc1cc(OC)c2c(=O)[nH]c(-c3ccc(C(=O)N4CCCC(CNc5ncc6c(C)cc(=O)n(C7CCCC7)c6n5)C4)cc3)nc2c1 (configuration not stated)
297
